Item-by-item account of Ki
target: isolated recombinant JAK1 kinase domain (Homo sapiens, UniProt P23458); construct: isolated recombinant JAK1 and JAK2 kinase domain; assay: JAK enzyme assay (Caliper LabChip), JAK1; conditions: 1.5 nM JAK1, ATP 25 μM, 22° C., 30 minutes; Morrison tight binding model
Sequence (P23458 875-1153 limits assumed): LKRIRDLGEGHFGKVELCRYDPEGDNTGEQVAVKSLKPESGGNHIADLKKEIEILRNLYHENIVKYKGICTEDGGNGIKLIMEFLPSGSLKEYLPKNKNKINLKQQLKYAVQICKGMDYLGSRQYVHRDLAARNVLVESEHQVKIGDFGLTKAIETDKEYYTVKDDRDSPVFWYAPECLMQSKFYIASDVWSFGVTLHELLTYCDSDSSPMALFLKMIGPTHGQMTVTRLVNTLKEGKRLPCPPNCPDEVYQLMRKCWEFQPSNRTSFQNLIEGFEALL
experimentalEndpoint: Ki (nM)

- molecule: "Cn1cc(Nc2nc3c(N4CCC(c5ccc(Cl)cc5)(C(O)CN5CCOCC5)CC4)cccn3n2)cn1 (racemic) [B]"
  experimentalEndpoint: "Ki"
  recordedMeasurement: 0.97
- molecule: "CN(C)C(=O)CN1CCC2(CC1)CN(C(=O)N1CC=C(c3cccn4nc(Nc5cnn(C)c5)nc34)CC1)C2 [I]"
  experimentalEndpoint: "Ki"
  recordedMeasurement: 190
- molecule: "OCC1(c2ccc(Cl)cc2)CCN(c2cccn3nc(Nc4cnn(Cc5ccncc5)c4)nc23)CC1 [Compound 1-6, formic acid]"
  experimentalEndpoint: "Ki"
  recordedMeasurement: 0.45
- molecule: "CN(C)CC(O)C1(c2ccc(Cl)cc2)CCN(c2cccn3nc(Nc4cnn(C)c4)nc23)CC1 (racemic) [C]"
  experimentalEndpoint: "Ki"
  recordedMeasurement: 1.8
- molecule: "CSc1ccc(C2(CC#N)CCN(c3cccn4nc(Nc5cnn(CCN6CCN(C(=O)N(C)C)CC6)c5)nc34)CC2)cc1 [Q]"
  experimentalEndpoint: "Ki"
  recordedMeasurement: 2.9
- molecule: "CSc1ccc(C2(CC#N)CCN(c3cccn4nc(Nc5cnn(CCNC6COC6)c5)nc34)CC2)cc1 [P]"
  experimentalEndpoint: "Ki"
  recordedMeasurement: 2.4
- molecule: "CSc1ccc(C2(CO)CCN(c3cccn4nc(Nc5cnn(CCN6CCC(N7CCOCC7)CC6)c5)nc34)CC2)cc1 [J]"
  experimentalEndpoint: "Ki"
  recordedMeasurement: 1.7
